Reference source for all entries: patent EP0462621A2

Tested on: T. cruzi
test_method_notes: T. cruzi intracellular amastigote (AM) in-vitro screen
Assay type: cell-based
study_conditions: T. cruzi strain Sonya
observation_type: activity, intracellular AM

Example cases with answers are listed next.
| compound | activity, intracellular AM |
| --- | --- |
| CC(C)=CCNc1ncnc2c1ncn2[C@@H]1O[C@H](COP(=O)(O)O)[C@@H](O)[C@H]1O [N6-Isopentenyl Adenosine-5'monophosphate] | ++(Y,Sonya) |
| OC[C@H]1O[C@@H](n2cnc3c(NCc4ccco4)ncnc32)[C@H](O)[C@@H]1O | + (Y,Sonya) |
| CC(C)=CCNc1ncnc2c1ncn2[C@@H]1O[C@H](CO)[C@@H](O)[C@H]1O | ++(Y,Sonya) |
| OC[C@H]1O[C@@H](n2cnc3c(NCc4ccccc4)ncnc32)[C@H](O)[C@@H]1O | + (Y,Sonya) |

Here's the next entry for you.
Query :: Can you share its activity, intracellular AM? I mean this compound: O=C(Cn1ccnc1[N+](=O)[O-])NCc1ccccc1 [Benznidazole, benznidazole, reference compound]
Result :: ++(Y,Sonya)

---

Test system: T. cruzi
test_method_notes: T. cruzi trypomastigote (TRY) in-vitro screen
Type: cell-based
study_conditions: T. cruzi strain Sonya
observation_type: activity, TRY

Example cases with answers are listed next.
| molecule | activity, TRY |
| --- | --- |
| OC[C@H]1O[C@@H](n2cnc3c(NCc4ccco4)ncnc32)[C@H](O)[C@@H]1O [Furfuryladenosine] | + (Y,Sonya) |
| CC(C)=CCNc1ncnc2c1ncn2[C@@H]1O[C@H](COP(=O)(O)O)[C@@H](O)[C@H]1O [N6-Isopentenyl Adenosine-5'monophosphate] | ++(Y,Sonya) |
| CC(C)=CCNc1ncnc2c1ncn2[C@@H]1O[C@H](CO)[C@@H](O)[C@H]1O [IPA, N^6-(Δ^2-isopentenyl) adenosine] | + (Y,Sonya) |
| O=C(Cn1ccnc1[N+](=O)[O-])NCc1ccccc1 [Benznidazole, benznidazole, reference compound] | ++(Y,Sonya) |

Here's the next entry for you.
Query :: Can you share its activity, TRY? I mean this molecule: OC[C@H]1O[C@@H](n2cnc3c(NCc4ccccc4)ncnc32)[C@H](O)[C@@H]1O [N6-Benzyladenosine, N^6-benzyladenosine]
Result :: + (Y,Sonya)

---

Tested on: T. cruzi
test_method_notes: T. cruzi epimastigote (EPI) in-vitro screen
Format: cell-based
study_conditions: T. cruzi strain MR
observation_type: activity, EPI

Example cases with answers are listed next.
| molecule | activity, EPI |
| --- | --- |
| CC(C)=CCNc1ncnc2c1ncn2[C@@H]1O[C@H](CO)[C@@H](O)[C@H]1O | ++(Y,MR, Sonya) |
| O=C(Cn1ccnc1[N+](=O)[O-])NCc1ccccc1 [Benznidazole, benznidazole, reference compound] | ++(Y,MR, Sonya) |
| OC[C@H]1O[C@@H](n2cnc3c(NCc4ccco4)ncnc32)[C@H](O)[C@@H]1O | ++(Y,MR, Sonya) |
| OC[C@H]1O[C@@H](n2cnc3c(NCc4ccccc4)ncnc32)[C@H](O)[C@@H]1O | +(Y,MR, Sonya) |

Here's the next entry for you.
Query :: Can you share its activity, EPI? I mean this molecule: CC(C)=CCNc1ncnc2c1ncn2[C@@H]1O[C@H](COP(=O)(O)O)[C@@H](O)[C@H]1O [N6-Isopentenyl Adenosine-5'monophosphate]
Result :: +(Y,MR, Sonya)

---

Test system: L donovani
test_method_notes: Leishmania mouse/hamster models, in-vivo; further: key: - no/poor activity,; + fair/moderate activity,; ++ good/excellent activity
study_conditions: Ld.
observation_type: Activity, mouse/ hamster models

| compound | observation_type | reported |
| --- | --- | --- |
| N=C(N)c1ccc(OCCCCCOc2ccc(C(=N)N)cc2)cc1 [Pentamidine, pentamidine, reference compound] | Activity, mouse/ hamster models | + |
| CC(C)=CCNc1ncnc2c1ncn2[C@@H]1O[C@H](CO)[C@@H](O)[C@H]1O | Activity, mouse/ hamster models | + |
| O.O.O.O.O.O.O.O.O.O=C([O-])[C@@H]1[O][Sb]2([O-])([O][Sb]34([OH])[O][C@H]([C@H](O)CO)[C@H]([O]3)[C@H](C(=O)[O-])[O]4)[O][C@H]([C@H](O)CO)[C@@H]1[O]2.[Na+].[Na+].[Na+] [Sodium stibogluconate, sodium stibogluconate, reference compound] | Activity, mouse/ hamster models | + + |

---

Tested on: T.b. brucei, T.b. gambiense and T.b. rhodesiense
test_method_notes: Cultivated bloodstream trypomastigote (TRY) in-vitro screen
Assay type: cell-based
observation_type: activity, cultivated bloodstream TRY

Example cases with answers are listed next.
| compound | activity, cultivated bloodstream TRY |
| --- | --- |
| OC[C@H]1O[C@@H](n2cnc3c(NCc4ccccc4)ncnc32)[C@H](O)[C@@H]1O [N6-Benzyladenosine, N^6-benzyladenosine] | + + |
| N=C(N)c1ccc(OCCCCCOc2ccc(C(=N)N)cc2)cc1 [Pentamidine, pentamidine, reference compound] | + + |
| Cc1ccc(C(=O)Nc2ccc(S(=O)(=O)O)c3cc(S(=O)(=O)O)cc(S(=O)(=O)O)c23)cc1NC(=O)c1cccc(NC(=O)Nc2cccc(C(=O)Nc3cc(C(=O)Nc4ccc(S(=O)(=O)O)c5cc(S(=O)(=O)O)cc(S(=O)(=O)O)c45)ccc3C)c2)c1 [Suramin, suramin, reference compound] | + |
| OC[C@H]1O[C@@H](n2cnc3c(NCc4ccco4)ncnc32)[C@H](O)[C@@H]1O [Furfuryladenosine] | + |
| Nc1nc(N)nc(Nc2ccc([As]3SCC(CO)S3)cc2)n1 (stereo not drawn) [Melarsoprol, melarsoprol, reference compound] | + + |

Here's the next entry for you.
Query :: Can you share its activity, cultivated bloodstream TRY? I mean this compound: CC(C)=CCNc1ncnc2c1ncn2[C@@H]1O[C@H](COP(=O)(O)O)[C@@H](O)[C@H]1O [N6-Isopentenyl Adenosine-5'monophosphate]
Result :: +

---

System: T. cruzi
test_method_notes: T. cruzi trypomastigote (TRY) in-vitro screen
Assay type: cell-based
study_conditions: T. cruzi strain Y
observation_type: activity, TRY

Example cases with answers are listed next.
| compound | activity, TRY |
| --- | --- |
| O=C(Cn1ccnc1[N+](=O)[O-])NCc1ccccc1 [Benznidazole, benznidazole, reference compound] | ++(Y,Sonya) |
| OC[C@H]1O[C@@H](n2cnc3c(NCc4ccco4)ncnc32)[C@H](O)[C@@H]1O | + (Y,Sonya) |
| CC(C)=CCNc1ncnc2c1ncn2[C@@H]1O[C@H](CO)[C@@H](O)[C@H]1O | + (Y,Sonya) |
| CC(C)=CCNc1ncnc2c1ncn2[C@@H]1O[C@H](COP(=O)(O)O)[C@@H](O)[C@H]1O [N6-Isopentenyl Adenosine-5'monophosphate] | ++(Y,Sonya) |

Query :: Can you share its activity, TRY? I mean this compound: `OC[C@H]1O[C@@H](n2cnc3c(NCc4ccccc4)ncnc32)[C@H](O)[C@@H]1O`
Result :: + (Y,Sonya)

---

Tested on: H9 cells
test_method_notes: Cytotoxicity on uninfected H9 cells, 10 days continuous exposure
Type: cell-based, human
study_conditions: read-out: ID50 - The concentration of IPA which kills 50% of the cells
observation_type: CC50 (µM)
A number alone suffices; assume µM.

Query :: Can you share its CC50? I mean this compound: CC(C)=CCNc1ncnc2c1ncn2[C@@H]1O[C@H](CO)[C@@H](O)[C@H]1O [IPA, N^6-(Δ^2-isopentenyl) adenosine]
Result :: 50

---

System: L major/L mexicana
test_method_notes: Leishmania mouse/hamster models, in-vivo; further: key: - no/poor activity,; + fair/moderate activity,; ++ good/excellent activity
study_conditions: Lm.
observation_type: Activity, mouse/ hamster models

Example cases with answers are listed next.
| compound | reported |
| --- | --- |
| N=C(N)c1ccc(OCCCCCOc2ccc(C(=N)N)cc2)cc1 [Pentamidine, pentamidine, reference compound] | - |
| OC[C@H]1O[C@@H](n2cnc3c(NCc4ccco4)ncnc32)[C@H](O)[C@@H]1O | + |
| CC(C)=CCNc1ncnc2c1ncn2[C@@H]1O[C@H](COP(=O)(O)O)[C@@H](O)[C@H]1O [N6-Isopentenyl Adenosine-5'monophosphate] | - |
| CC(C)=CCNc1ncnc2c1ncn2[C@@H]1O[C@H](CO)[C@@H](O)[C@H]1O | - |

Query :: Can you share its Activity, mouse/ hamster models? I mean this compound: `OC[C@H]1O[C@@H](n2cnc3c(NCc4ccccc4)ncnc32)[C@H](O)[C@@H]1O`
Result :: -

---

Tested on: L donovani
test_method_notes: Leishmania mouse/hamster models, in-vivo; further: key: - no/poor activity,; + fair/moderate activity,; ++ good/excellent activity
study_conditions: Ld.
observation_type: Activity, mouse/ hamster models

| molecule | reported |
| --- | --- |
| CC(C)=CCNc1ncnc2c1ncn2[C@@H]1O[C@H](COP(=O)(O)O)[C@@H](O)[C@H]1O [N6-Isopentenyl Adenosine-5'monophosphate] | + |
| OC[C@H]1O[C@@H](n2cnc3c(NCc4ccco4)ncnc32)[C@H](O)[C@@H]1O | + |
| OC[C@H]1O[C@@H](n2cnc3c(NCc4ccccc4)ncnc32)[C@H](O)[C@@H]1O | - |

---

Test system: T. cruzi
test_method_notes: T. cruzi epimastigote (EPI) in-vitro screen
Type: cell-based
study_conditions: T. cruzi strain Y
observation_type: activity, EPI

Example cases with answers are listed next.
| compound | reported |
| --- | --- |
| O=C(Cn1ccnc1[N+](=O)[O-])NCc1ccccc1 [Benznidazole, benznidazole, reference compound] | ++(Y,MR, Sonya) |
| CC(C)=CCNc1ncnc2c1ncn2[C@@H]1O[C@H](CO)[C@@H](O)[C@H]1O | ++(Y,MR, Sonya) |
| OC[C@H]1O[C@@H](n2cnc3c(NCc4ccco4)ncnc32)[C@H](O)[C@@H]1O | ++(Y,MR, Sonya) |
| OC[C@H]1O[C@@H](n2cnc3c(NCc4ccccc4)ncnc32)[C@H](O)[C@@H]1O | +(Y,MR, Sonya) |

Here's the next entry for you.
Query :: # returns recorded activity, EPI (system: T. cruzi) for CC(C)=CCNc1ncnc2c1ncn2[C@@H]1O[C@H](COP(=O)(O)O)[C@@H](O)[C@H]1O [N6-Isopentenyl Adenosine-5'monophosphate]
Result :: +(Y,MR, Sonya)
